Where do these numbers come from? They come from patent US20210301005A1.

# targetOrTestSystem: T1, human TGFβ3, mature dimeric form (human, UniProt P10600 301-412)
# T1 sequence: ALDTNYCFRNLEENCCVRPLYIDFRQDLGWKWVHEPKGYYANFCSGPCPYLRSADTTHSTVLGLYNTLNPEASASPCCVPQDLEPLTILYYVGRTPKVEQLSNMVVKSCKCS
# testSummary: cell-based or functional assay
// HEKBlue TGFβ blocking IC50 lookup, one value per entry

// query Which HEKBlue TGFβ blocking IC50 reading was recorded for the binder h4A11.v7.4 (antibody, V domains shown) VH: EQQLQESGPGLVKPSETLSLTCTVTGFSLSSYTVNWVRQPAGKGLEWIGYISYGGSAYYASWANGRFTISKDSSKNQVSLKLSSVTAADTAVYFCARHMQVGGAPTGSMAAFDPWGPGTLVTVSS VL: EIVLTQSPGTLSLSPGERATLSCQSSQSVYNNNYLSWFQQKPGQPPRLLIYGASTLTSGVPDRFSGSGSGTDFTLTISRLEPEDFAVYYCAGGYSGSSDKYAFGGGTKVEIK ?
// result 0.05 nM

// query Which HEKBlue TGFβ blocking IC50 reading was recorded for the binder h4A11.v7.11 (antibody, human IgG1, kappa, N297G, V domains shown) VH: EQQLQESGPGLVKPSETLSLTCTVTGFSLSSYTVNWVRQPAGKGLEWIGYISYGGSAYYASWANGRFTISVDSSKNQVSLKLSSVTAADTAVYFCARHMQVGGAPTGSMAAFDPWGPGTLVTVSS VL: EAVLTQSPGTLSLSPGERATLSCQSSQSVYNNNYLSWFQQKPGQPPRLLIYGASTLTSGVPDRFSGSGSGTDFTLTISRLEPEDFAVYYCAGGYSGSSDKYAFGGGTKVEIKR ?
// result 3.53 nM

// query Which HEKBlue TGFβ blocking IC50 reading was recorded for the binder h4A11.v7.12 (antibody, human IgG1, kappa, N297G, V domains shown) VH: EQQLQESGPGLVKPSETLSLTCTVTGFSLSSYTVNWVRQPAGKGLEWIGYISYGGSAYYASWANGRFTISKDTSKNQVSLKLSSVTAADTAVYFCARHMQVGGAPTGSMAAFDPWGPGTLVTVSS VL: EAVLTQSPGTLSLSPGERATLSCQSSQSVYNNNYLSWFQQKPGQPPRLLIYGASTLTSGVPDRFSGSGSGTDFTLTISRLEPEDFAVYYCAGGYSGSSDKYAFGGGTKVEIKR ?
// result 0.03 nM

// query Which HEKBlue TGFβ blocking IC50 reading was recorded for the binder 4A11 (antibody, V domains shown, anti-TGFβ2/3, recombinant rabbit monoclonal; some paragraphs print the H/L pair as 32/33; also called Rb1.4A11; Rbt 4A11) VH: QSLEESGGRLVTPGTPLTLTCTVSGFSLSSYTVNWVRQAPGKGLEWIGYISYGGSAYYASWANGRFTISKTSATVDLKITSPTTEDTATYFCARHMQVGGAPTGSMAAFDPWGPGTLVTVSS VL: AAVLTQTPSPVSAAVGGTVSISCQSSQSVYNNNYLSWFQQKPGQPPKLLIYGASTLTSGVPSRFKGSGSGTQFTLTISDVQCDDAATYYCAGGYSGSSDKYAFGGGTEVVVKG ?
// result 0.06 nM

// query Which HEKBlue TGFβ blocking IC50 reading was recorded for the binder h4A11.v7.7 (antibody, V domains shown) VH: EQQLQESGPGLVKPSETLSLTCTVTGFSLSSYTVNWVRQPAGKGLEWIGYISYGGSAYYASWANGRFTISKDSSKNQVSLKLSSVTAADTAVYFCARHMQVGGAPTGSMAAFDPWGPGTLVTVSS VL: EAVLTQSPGTLSLSPGERATLSCQSSQSVYNNNYLSWFQQKPGQPPRLLIYGASTLTSGIPDRFSGSGSGTDFTLTISRLEPEDFAVYYCAGGYSGSSDKYAFGGGTKVEIK ?
// result 0.04 nM
